- System: 361931-004-R-J1-PDC multicell spheroid viability
- TEST_DETAILS: Anticancer human tumor 361931-004-R-J1-PDC patient-derived colon adenocarcinoma cell line growth inhibition [PI3K]
- CONDITION_SET: second compound 0.01 µM; first compound 1 µM; hits give low values
ATTRIBUTE_MEASURED: viability, T/C

// known answers, use as guide
CCN1CCN(Cc2ccc(Nc3ncc(F)c(-c4cc(F)c5nc(C)n(C(C)C)c5c4)n3)nc2)CC1 + COc1c(OCCCN2CCOCC2)ccc2c3n(c(=NC(=O)c4cnc(N)nc4)nc12)CCN3; 64.5%
CC1(C)CCC(Nc2ncc(C(F)(F)F)c(-c3c[nH]c4c(P(C)(C)=O)c(C#N)ccc34)n2)CN1 (stereo unspecified) + COc1c(OCCCN2CCOCC2)ccc2c3n(c(=NC(=O)c4cnc(N)nc4)nc12)CCN3; 83.1%
Cn1nccc1Nc1nccc(-c2ccn(C(CO)c3ccc(Cl)c(F)c3)c(=O)c2)n1 (stereo unspecified) + CC(Nc1ccc2c(c1)OCCn1cc(N3C(=O)OCC3C(F)F)nc1-2)C(N)=O; 84.1%
CC(C)NCC(C(=O)N1CCN(c2ncnc3c2C(C)CC3O)CC1)c1ccc(Cl)cc1 (stereo unspecified) + CC(Nc1ccc2c(c1)OCCn1cc(N3C(=O)OCC3C(F)F)nc1-2)C(N)=O; 55.3%
Cn1ncc(Cl)c1-c1cc(C(=O)NC(CN)Cc2cccc(F)c2)sc1Cl (stereo unspecified) + CC(Nc1ccc2c(c1)OCCn1cc(N3C(=O)OCC3C(F)F)nc1-2)C(N)=O; 48.4%

Qu. Recall the reported viability, T/C of C#Cc1c(F)ccc2cc(O)cc(-c3ncc4c(N5CC6CCC(C5)N6)nc(OCC56CCCN5CC(F)C6)nc4c3F)c12 (stereo unspecified) + COc1c(OCCCN2CCOCC2)ccc2c3n(c(=NC(=O)c4cnc(N)nc4)nc12)CCN3 on 361931-004-R-J1-PDC multicell spheroid viability and write it down.
Ans. 91%

###

- System: 361931-004-R-J1-PDC multicell spheroid viability
- TEST_DETAILS: Anticancer human tumor 361931-004-R-J1-PDC cell line growth inhibition [PI3K];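 note: spheroids exposed to agents for seven days before readout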
- CONDITION_SET: second compound 1 µM; first compound 3 µM; hits give low values
ATTRIBUTE_MEASURED: viability, T/C

Cn1cnc2c(F)c(Nc3ccc(Br)cc3Cl)c(C(=O)NOCCO)cc21 + CC(Nc1ncnc2nc[nH]c12)c1cc2cccc(Cl)c2c(=O)n1-c1ccccc1; 59.7%

Qu. Respond only with viability, T/C recorded for Cn1cnc2c(F)c(Nc3ccc(Br)cc3Cl)c(C(=O)NOCCO)cc21 + COc1c(OCCCN2CCOCC2)ccc2c3n(c(=NC(=O)c4cnc(N)nc4)nc12)CCN3
Ans. 1.34%

Qu. Respond only with viability, T/C recorded for Cn1cnc2c(F)c(Nc3ccc(Br)cc3Cl)c(C(=O)NOCCO)cc21 + Cc1nc(NC(=O)N2CCCC2C(N)=O)sc1-c1ccnc(C(C)(C)C(F)(F)F)c1
Ans. 27.5%

Qu. Respond only with viability, T/C recorded for Cn1cnc2c(F)c(Nc3ccc(Br)cc3Cl)c(C(=O)NOCCO)cc21 + CC(Nc1ccc2c(c1)OCCn1cc(N3C(=O)OCC3C(F)F)nc1-2)C(N)=O
Ans. 8.6%

###

- System: 361931-004-R-J1-PDC multicell spheroid viability
- TEST_DETAILS: Anticancer human tumor 361931-004-R-J1-PDC cell line growth inhibition [PI3K];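 note: spheroids exposed to agents for seven days before readout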
- CONDITION_SET: second compound 1 µM; first compound 0.1 µM; hits give low values
# note: exactly 20% is not below, so it is 0 (no); use 1 (yes) for viability, T/C strictly under it

Examples from the recorded data:
CC(=O)c1c(C)c2cnc(Nc3ccc(N4CCNCC4)cn3)nc2n(C2CCCC2)c1=O + Cc1nc(NC(=O)N2CCCC2C(N)=O)sc1-c1ccnc(C(C)(C)C(F)(F)F)c1; 0 (no)
CCCS(=O)(=O)Nc1ccc(F)c(C(=O)c2c[nH]c3ncc(-c4ccc(Cl)cc4)cc23)c1F + CC(Nc1ncnc2nc[nH]c12)c1cc2cccc(Cl)c2c(=O)n1-c1ccccc1; 0 (no)
C#Cc1c(F)ccc2cc(O)cc(-c3ncc4c(N5CC6CCC(C5)N6)nc(OCC56CCCN5CC(F)C6)nc4c3F)c12 (stereo not given) + COc1c(OCCCN2CCOCC2)ccc2c3n(c(=NC(=O)c4cnc(N)nc4)nc12)CCN3; 1 (yes)
CC(C)NCC(C(=O)N1CCN(c2ncnc3c2C(C)CC3O)CC1)c1ccc(Cl)cc1 (stereo not given) + COc1c(OCCCN2CCOCC2)ccc2c3n(c(=NC(=O)c4cnc(N)nc4)nc12)CCN3; 0 (no)

Qu. Bench note: check whether CNC(=O)c1ccc(N2C(=S)N(c3ccc(C#N)c(C(F)(F)F)c3)C(=O)C2(C)C)cc1F + Cc1nc(NC(=O)N2CCCC2C(N)=O)sc1-c1ccnc(C(C)(C)C(F)(F)F)c1 shows viability, T/C below 20%
Ans. 0 (no)

###

- Tested on: 361931-004-R-J1-PDC multicell spheroid viability
- TEST_DETAILS: Anticancer human tumor 361931-004-R-J1-PDC cell line growth inhibition [PI3K];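 note: spheroids exposed to agents for seven days before readout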
- CONDITION_SET: second compound 0.00316 µM; first compound 10 µM; hits give low values
Below, each entry is listed with its recorded viability, T/C.

// known answers, use as guide
C=CC(=O)N1CCN(c2nc(=O)n(-c3c(C)ccnc3C(C)C)c3nc(-c4c(O)cccc4F)c(F)cc23)C(C)C1 (stereo unspecified) + COc1c(OCCCN2CCOCC2)ccc2c3n(c(=NC(=O)c4cnc(N)nc4)nc12)CCN3; 90.1%
Cn1nccc1Nc1nccc(-c2ccn(C(CO)c3ccc(Cl)c(F)c3)c(=O)c2)n1 (stereo unspecified) + CC(Nc1ccc2c(c1)OCCn1cc(N3C(=O)OCC3C(F)F)nc1-2)C(N)=O; 45.6%
CC1(C)CCC(CN2CCN(c3ccc(C(=O)NS(=O)(=O)c4ccc(NCC5CCOCC5)c([N+](=O)[O-])c4)c(Oc4cnc5[nH]ccc5c4)c3)CC2)=C(c2ccc(Cl)cc2)C1 + CC(Nc1ccc2c(c1)OCCn1cc(N3C(=O)OCC3C(F)F)nc1-2)C(N)=O; 2.39%
CC1(C)CCC(CN2CCN(c3ccc(C(=O)NS(=O)(=O)c4ccc(NCC5CCOCC5)c([N+](=O)[O-])c4)c(Oc4cnc5[nH]ccc5c4)c3)CC2)=C(c2ccc(Cl)cc2)C1 + COc1c(OCCCN2CCOCC2)ccc2c3n(c(=NC(=O)c4cnc(N)nc4)nc12)CCN3; 4.89%

Qu. Respond only with viability, T/C recorded for Cn1ncc(Cl)c1-c1cc(C(=O)NC(CN)Cc2cccc(F)c2)sc1Cl (stereo unspecified) + COc1c(OCCCN2CCOCC2)ccc2c3n(c(=NC(=O)c4cnc(N)nc4)nc12)CCN3
Ans. 27.4%

Qu. Respond only with viability, T/C recorded for CCCS(=O)(=O)Nc1ccc(F)c(C(=O)c2c[nH]c3ncc(-c4ccc(Cl)cc4)cc23)c1F + COc1c(OCCCN2CCOCC2)ccc2c3n(c(=NC(=O)c4cnc(N)nc4)nc12)CCN3
Ans. 7.97%

###

- Tested on: 361931-004-R-J1-PDC multicell spheroid viability
- TEST_DETAILS: Anticancer human tumor 361931-004-R-J1-PDC cell line growth inhibition [PI3K];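 note: spheroids exposed to agents for seven days before readout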
- CONDITION_SET: second compound 3.16 µM; first compound 0.316 µM; hits give low values
ATTRIBUTE_MEASURED: viability, T/C (%)
// units = %; emit number, no label

// known answers, use as guide
CNC(=O)c1ccc(N2C(=S)N(c3ccc(C#N)c(C(F)(F)F)c3)C(=O)C2(C)C)cc1F + CC(Nc1ncnc2nc[nH]c12)c1cc2cccc(Cl)c2c(=O)n1-c1ccccc1; 97.1
C[C@@H](NC(=O)c1ncnc(N)c1Cl)c1ncc(C(=O)Nc2cc(C(F)(F)F)c(Cl)cn2)s1 + Cc1nc(NC(=O)N2CCCC2C(N)=O)sc1-c1ccnc(C(C)(C)C(F)(F)F)c1; 76.1
CC(C)NCC(C(=O)N1CCN(c2ncnc3c2C(C)CC3O)CC1)c1ccc(Cl)cc1 (stereo unspecified) + CC(Nc1ncnc2nc[nH]c12)c1cc2cccc(Cl)c2c(=O)n1-c1ccccc1; 98.3

Qu. Recall the reported viability, T/C of Cn1ncc(Cl)c1-c1cc(C(=O)NC(CN)Cc2cccc(F)c2)sc1Cl (stereo unspecified) + CC(Nc1ncnc2nc[nH]c12)c1cc2cccc(Cl)c2c(=O)n1-c1ccccc1 on 361931-004-R-J1-PDC multicell spheroid viability and write it down.
Ans. 89.4

Qu. Recall the reported viability, T/C of Cn1ncc(Cl)c1-c1cc(C(=O)NC(CN)Cc2cccc(F)c2)sc1Cl (stereo unspecified) + Cc1nc(NC(=O)N2CCCC2C(N)=O)sc1-c1ccnc(C(C)(C)C(F)(F)F)c1 on 361931-004-R-J1-PDC multicell spheroid viability and write it down.
Ans. 67.8

Qu. Recall the reported viability, T/C of CC(Cn1ccc(-c2ccc(C#N)c(Cl)c2)n1)NC(=O)c1cc(C(C)O)[nH]n1 (stereo unspecified) + Cc1nc(NC(=O)N2CCCC2C(N)=O)sc1-c1ccnc(C(C)(C)C(F)(F)F)c1 on 361931-004-R-J1-PDC multicell spheroid viability and write it down.
Ans. 90.7

Qu. Recall the reported viability, T/C of CCN1CCN(Cc2ccc(Nc3ncc(F)c(-c4cc(F)c5nc(C)n(C(C)C)c5c4)n3)nc2)CC1 + CC(Nc1ncnc2nc[nH]c12)c1cc2cccc(Cl)c2c(=O)n1-c1ccccc1 on 361931-004-R-J1-PDC multicell spheroid viability and write it down.
Ans. 100

Qu. Recall the reported viability, T/C of CC(C)NCC(C(=O)N1CCN(c2ncnc3c2C(C)CC3O)CC1)c1ccc(Cl)cc1 (stereo unspecified) + Cc1nc(NC(=O)N2CCCC2C(N)=O)sc1-c1ccnc(C(C)(C)C(F)(F)F)c1 on 361931-004-R-J1-PDC multicell spheroid viability and write it down.
Ans. 73.9
